Below, each entry is listed alongside its reported Max MFI.
# target.or.test.system: T1, human CCR8 (human, UniProt P51685 1-355)
# T1 construct: whole, on cells; In the β-arrestin assay CCR8 is fused to the ProLink (PK) tag; also called hCCR8; CHO-K1-human CCR8
# T1 sequence (P51685 whole entry, the tested form may be a part): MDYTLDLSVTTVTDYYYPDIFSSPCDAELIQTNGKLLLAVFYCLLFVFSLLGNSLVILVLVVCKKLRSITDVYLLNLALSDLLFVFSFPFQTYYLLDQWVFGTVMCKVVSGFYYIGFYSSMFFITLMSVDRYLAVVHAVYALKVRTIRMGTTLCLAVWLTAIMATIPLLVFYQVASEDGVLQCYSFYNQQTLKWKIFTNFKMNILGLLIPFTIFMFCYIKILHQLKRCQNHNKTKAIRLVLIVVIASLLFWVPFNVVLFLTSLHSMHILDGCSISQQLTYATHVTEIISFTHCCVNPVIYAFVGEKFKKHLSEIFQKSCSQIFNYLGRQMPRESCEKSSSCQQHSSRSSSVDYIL
# experimental.details: FACS on CHO-K1-human CCR8 cells
Just the number in MFI, nothing appended.

149F2C10 (antibody, V domains shown, also called 1491F2C0) VH: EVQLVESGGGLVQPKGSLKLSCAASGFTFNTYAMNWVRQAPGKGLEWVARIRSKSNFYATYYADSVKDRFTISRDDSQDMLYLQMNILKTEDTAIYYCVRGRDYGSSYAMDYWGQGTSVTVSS VL: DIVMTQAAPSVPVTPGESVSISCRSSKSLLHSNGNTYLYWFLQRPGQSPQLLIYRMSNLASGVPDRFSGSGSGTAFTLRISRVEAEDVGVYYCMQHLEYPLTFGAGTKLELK : 50700

Data point: 348E2D11 (antibody, V domains shown, Murine hybridoma antibody) VH: QVQLVETGGGLVRPGNSLKLSCVTSGFSFSNYRMHWLRQPPGKRLEWIAVITVKSDNYGANYAESVKGRFTISRDDSKSSVYLQMNRLREEDTATYYCSSLGRVAYWGQGTLVTVSA VL: DIVMTQSQKFMFTSVGDRVSVTCKASQNVDTNVVWYQQKPGQSPKALIYSASSRYSGVPDRFTGSGSGTDFTLTISNVQSEDLAEYFCQQHNSFPLTFGAGTKLELI ; Max MFI = 51500
